- Test system: MDA-MB-231 breast
- Protocol Notes: NCI-60 one-dose screen, 48 h (100 = growth as untreated, 0 = no growth, -100 = all killed)
- Measurement Context: 10 µM unless noted
The panel holds about 83,000 compounds, 20% with a hit somewhere; the sample as a whole holds those more often.
hey, just use YES if measured growth is less than 80%, otherwise NO

In [3]: df
Out[3]:
                               query_smiles  qualitative_label
0  O=C(CCN1CCCC1)Nc1ccc2c(Nc3ccc(F)cc3)c3ccccc3nc2c1                YES
1  COc1ccc2c(c1)oc1c(C)c3c(c(C)c12)C(=O)N(N)C3=O                YES
2  Cc1cc(C(=O)/C=C/c2ccc[nH]2)ccc1-n1ccc(C(F)(F)F)n1                YES
3                O=C1C=CC(=O)N1c1cccc(Cl)c1                 NO

Consider the record given below.
IN: # check: growth < 80% for COc1cc2nc(-c3ccc(Cl)cc3)cc(OCCCN3CCC(O)CC3)c2cc1OC
OUT: YES

###

- Tested on: OVCAR-3 ovarian
- Protocol Notes: NCI-60 one-dose screen, 48 h (100 = growth as untreated, 0 = no growth, -100 = all killed)
- Measurement Context: 10 µM unless noted
- Protocol: Growth inhibition of the OVCAR-3 human tumor cell line is measured as a screen for anti-cancer activity. Cells are grown in 96 well plates and exposed to the test compound for 48 hours. Compounds are tested at a single concentration, which is 10^-5 M for most compounds. The reported endpoint is percent growth (GI% or GIPRCNT), where numbers from 0 - 100% represent growth inhibition, and numbers from -100% - 0 represent cell death. For example, a value of 40 represents 60% growth inhibition. […]
This is part of a sample that, as a whole, favours compounds with a hit. Of some 83,000 tested, about 20% had one in any assay.
hey, just use true if measured growth is less than 90%, otherwise false

Would you please look over these solved cases?
In [3]: df
Out[3]:
                               query_smiles  qualitative_label
0  O=C(Nc1cccc(C(=O)N2CCc3ccc(Cl)cc32)c1)c1ccco1               true
1  CCCCOc1ccc(/C(C)=N/Nc2cc(C)nc3ccc(Br)cc23)cc1              false
2  O=S(=O)(NCCCNc1nccc(-c2c(-c3cccc(F)c3)nc3sccn23)n1)c1cccc(F)c1               true
3  CNC(=O)c1cccc(Cn2nc(C)c(NC(=O)c3ccc(COc4ccc(C(F)(F)F)cc4C)cc3)c2C)c1               true
4  NS(=O)(=O)c1ccc(CCN2C(=O)c3cc(Cl)c(Cl)cc3C2=O)cc1              false
5  COc1ccc2c(c1)oc1c(C)c3c(c(C)c12)C(=O)N(N)C3=O               true

IN: # check: growth < 90% for CCOC(=O)Nc1ccc(-c2ccc3c(c2)NC(=O)/C3=C\c2ccc[nH]2)cc1
OUT: false

IN: # check: growth < 90% for Cc1nc(N)nc(N[C@@H](C)c2nc3cccc(NCc4ccc(C(=O)NO)cc4)c3c(=O)n2-c2ccccc2)n1
OUT: true

IN: # check: growth < 90% for COc1ccc(N2CCN(c3ccc(NC4=C(Cl)C(=O)c5ncccc5C4=O)cc3)CC2)cc1
OUT: true

###

- System: SF-539 CNS
- Protocol Notes: NCI-60 one-dose screen, 48 h
- Measurement Context: 10 µM unless noted
This is part of a sample that, as a whole, favours compounds with a hit. Of some 83,000 tested, about 20% had one in any assay. The source made the active and inactive calls. How the source made its calls: active means growth percent below 10; inactive means the rest.
Outcome (select one): 1.0 (active), 0.0 (inactive)

>>> df
                            query_smiles  qualitative_label
0  Cc1ccc(/C=C(/C#N)n2nnc3cccc(F)c32)cc1                1.0

IN: Could you check what this test reported for COc1ccc(/C=C2\Oc3cc(OCCCCCN4CCCCC4)ccc3C2=O)cc1OC ?
OUT: 0.0

IN: Could you check what this test reported for NC(=NCCCOc1ccc(F)cc1)Nc1ccc(I)cc1 ?
OUT: 0.0

IN: Could you check what this test reported for O=C(O)c1ccc2c(c1)C(=O)N(Cc1ccccc1)C2=O ?
OUT: 0.0

IN: Could you check what this test reported for COc1ccc(C(=O)CSc2nc(-c3cc(OC)ccc3OC)cc(-c3ccc(Cl)cc3)c2C#N)cc1 ?
OUT: 0.0

IN: Could you check what this test reported for CCOC(=O)Nc1ccc(-c2ccc3c(c2)NC(=O)/C3=C\c2ccc[nH]2)cc1 ?
OUT: 0.0

IN: Could you check what this test reported for Cc1ccc(-n2cc(-c3ccccc3)c3c2N=NN2CCN=C32)cc1 ?
OUT: 0.0

###

- Tested on: IGROV1 ovarian
- Protocol Notes: NCI-60 one-dose screen, 48 h
- Measurement Context: 10 µM unless noted
This is part of a sample that, as a whole, favours compounds with a hit. Of some 83,000 tested, about 20% had one in any assay. The source made the active and inactive calls. The calls were made as follows: active = growth percent below 10; inactive = the rest.
Outcome (select one): active, inactive

                                   molecule     test_system  qualitative_label
0  Cc1c(C)c([N+](=O)[O-])c(C)c([N+](=O)[O-])c1C  IGROV1 ovarian           inactive
1  COc1ccc2[nH]c(O)c(/C=c3/cc4c(c(-c5ccc(F)cc5)n3)=Nc3ccccc3-4)c2c1  IGROV1 ovarian           inactive
2  Oc1cccc(CCc2ccc(Oc3cc(CCc4cccc(O)c4)cc(O)c3O)cc2)c1  IGROV1 ovarian           inactive
3  c1ccc2cc(Cn3c(-c4cccc5ccccc45)[n+](Cc4ccc5ccccc5c4)c4c5ccccc5c5ccccc5c43)ccc2c1  IGROV1 ovarian             active
4  Cc1cc2nc3c4cc(C=O)ccc4n(CCN(C)C)c3nc2cc1C  IGROV1 ovarian             active
5  CCNC(=O)Oc1ccc(/C(=C(\C)c2ccccc2)c2ccc(OCCN3CCCCC3)cc2)cc1  IGROV1 ovarian           inactive
6  Cc1ccc(NS(=O)(=O)c2ccc(-c3cnc(C4CC4)o3)cc2)cc1C(F)(F)F  IGROV1 ovarian           inactive
7  CCNC(=O)Oc1ccc(/C(=C(\C)c2ccccc2)c2ccc(OCCCN(C)C)cc2)cc1  IGROV1 ovarian           inactive

IN: Could you check what this test reported for CSc1nc2sc3cccc(Cl)c3n2c(=N)c1C#N ?
OUT: inactive

IN: Could you check what this test reported for CC1=CCC(OC(=O)C(C)(O)CCC(O)(C(=O)OC2(C)C=CC(O)(C(C)C)CC2)C(C)C)(C(C)C)CC1 (configuration not stated) ?
OUT: inactive

IN: Could you check what this test reported for COc1cc(/C=C/C(=O)c2nc3cc(F)ccc3nc2C)cc(OC)c1OC ?
OUT: inactive

IN: Could you check what this test reported for O=C1c2cccc3c(-c4ccc5c(c4)ncn5C4CCCCC4)ccc(c23)C(=O)N1CCO ?
OUT: inactive

IN: Could you check what this test reported for COc1ccc(CNCCN2C(=O)c3ccc4c5c(ccc(c35)C2=O)C(=O)N(CCNCc2ccc(OC)c(OC)c2OC)C4=O)c(OC)c1OC ?
OUT: active

IN: Could you check what this test reported for CC1=C(C(=O)/C=C/c2ccc(N(C)C)cc2)C(c2ccccc2)NC(=S)N1 (configuration not stated) ?
OUT: inactive

IN: Could you check what this test reported for COc1ccc(/C=N/NC(=O)c2cnn3c2NC(c2ccccc2)C3)cc1OC (configuration not stated) ?
OUT: inactive

IN: Could you check what this test reported for COc1cccc(-c2nc3occn3c2-c2ccnc(NCCNS(=O)(=O)c3cccc4ccccc34)n2)c1 ?
OUT: inactive

IN: Could you check what this test reported for O=C(Cc1ccc(/C=C/C(=O)c2ncc[nH]2)cc1)Nc1ccc(Cl)cc1 ?
OUT: inactive

###

- System: T-47D breast
- Protocol Notes: NCI-60 one-dose screen, 48 h
- Measurement Context: 10 µM unless noted
This is part of a sample that, as a whole, favours compounds with a hit. Of some 83,000 tested, about 20% had one in any assay. Active and inactive are the calls of the source. How the source made its calls: active means growth percent below 10; inactive means the rest.
Outcome (select one): active, inactive

Compound	Qualitative Label
COc1ccc(OC)c(-c2cc(-c3ccc(Cl)cc3)c3c(N)c(C(=O)c4ccc(Cl)cc4)sc3n2)c1	inactive

IN: Could you check what this test reported for O=c1c2c(c(=O)n1O)c1c3ccc[nH]c3nc1c1nc3[nH]cccc3c12 ?
OUT: inactive

IN: Could you check what this test reported for CCOC(=O)[C@@H](C)C[C@H](Cc1ccccc1)NC(=O)c1csc([C@@H](C[C@H](C(C)C)N(C)C(=O)[C@@H](NC(=O)[C@H]2C[C@H](O[Si](C)(C)C(C)(C)C)CCN2C)C(C)C)OC(C)=O)n1 ?
OUT: inactive

IN: Could you check what this test reported for COc1cc(/C(C)=C(\c2ccc(Cl)cc2)c2ccc(OCCN3CCCC3)cc2)ccc1F ?
OUT: inactive

IN: Could you check what this test reported for COc1cc(C2=NN(C(C)=O)C(c3cc(OC)c(OC)c(OC)c3)C2)ccc1O (stereo not drawn) ?
OUT: inactive

IN: Could you check what this test reported for NS(=O)(=O)c1ccc(CCN2C(=O)C3C(C2=O)C2(Cl)C(Cl)=C(Cl)C3(Cl)C2(Cl)Cl)cc1 (stereo not drawn) ?
OUT: inactive

IN: Could you check what this test reported for C#Cc1cccc(NC(=O)c2cccc(NC(=O)CCl)c2)c1 ?
OUT: inactive

IN: Could you check what this test reported for O=C1C=CC(=O)N1c1cccc(Cl)c1 ?
OUT: inactive

IN: Could you check what this test reported for CCCNC(=O)Oc1ccc(/C(=C(\C)c2ccccc2)c2ccc(OCCCN(C)C)cc2)cc1 ?
OUT: inactive

IN: Could you check what this test reported for CC(=O)Oc1ccc(/C=N/NC(N)=S)nc1 ?
OUT: inactive

IN: Could you check what this test reported for Fc1ccc2c(-c3cncn3CCc3ccccc3)c[nH]c2c1 ?
OUT: inactive
